system: Cystic fibrosis transmembrane conductance regulator (Homo sapiens), P13569 [F508del]; experiment: Activity at CFTR F508 deletion mutant expressed in forskolin-stimulated FRT cells assessed as maximal increase in iodine influx measured as YFP quenching rate after 24 hrs by fluorescence assay; type: cell-based
Sequence (P13569 as listed by the source): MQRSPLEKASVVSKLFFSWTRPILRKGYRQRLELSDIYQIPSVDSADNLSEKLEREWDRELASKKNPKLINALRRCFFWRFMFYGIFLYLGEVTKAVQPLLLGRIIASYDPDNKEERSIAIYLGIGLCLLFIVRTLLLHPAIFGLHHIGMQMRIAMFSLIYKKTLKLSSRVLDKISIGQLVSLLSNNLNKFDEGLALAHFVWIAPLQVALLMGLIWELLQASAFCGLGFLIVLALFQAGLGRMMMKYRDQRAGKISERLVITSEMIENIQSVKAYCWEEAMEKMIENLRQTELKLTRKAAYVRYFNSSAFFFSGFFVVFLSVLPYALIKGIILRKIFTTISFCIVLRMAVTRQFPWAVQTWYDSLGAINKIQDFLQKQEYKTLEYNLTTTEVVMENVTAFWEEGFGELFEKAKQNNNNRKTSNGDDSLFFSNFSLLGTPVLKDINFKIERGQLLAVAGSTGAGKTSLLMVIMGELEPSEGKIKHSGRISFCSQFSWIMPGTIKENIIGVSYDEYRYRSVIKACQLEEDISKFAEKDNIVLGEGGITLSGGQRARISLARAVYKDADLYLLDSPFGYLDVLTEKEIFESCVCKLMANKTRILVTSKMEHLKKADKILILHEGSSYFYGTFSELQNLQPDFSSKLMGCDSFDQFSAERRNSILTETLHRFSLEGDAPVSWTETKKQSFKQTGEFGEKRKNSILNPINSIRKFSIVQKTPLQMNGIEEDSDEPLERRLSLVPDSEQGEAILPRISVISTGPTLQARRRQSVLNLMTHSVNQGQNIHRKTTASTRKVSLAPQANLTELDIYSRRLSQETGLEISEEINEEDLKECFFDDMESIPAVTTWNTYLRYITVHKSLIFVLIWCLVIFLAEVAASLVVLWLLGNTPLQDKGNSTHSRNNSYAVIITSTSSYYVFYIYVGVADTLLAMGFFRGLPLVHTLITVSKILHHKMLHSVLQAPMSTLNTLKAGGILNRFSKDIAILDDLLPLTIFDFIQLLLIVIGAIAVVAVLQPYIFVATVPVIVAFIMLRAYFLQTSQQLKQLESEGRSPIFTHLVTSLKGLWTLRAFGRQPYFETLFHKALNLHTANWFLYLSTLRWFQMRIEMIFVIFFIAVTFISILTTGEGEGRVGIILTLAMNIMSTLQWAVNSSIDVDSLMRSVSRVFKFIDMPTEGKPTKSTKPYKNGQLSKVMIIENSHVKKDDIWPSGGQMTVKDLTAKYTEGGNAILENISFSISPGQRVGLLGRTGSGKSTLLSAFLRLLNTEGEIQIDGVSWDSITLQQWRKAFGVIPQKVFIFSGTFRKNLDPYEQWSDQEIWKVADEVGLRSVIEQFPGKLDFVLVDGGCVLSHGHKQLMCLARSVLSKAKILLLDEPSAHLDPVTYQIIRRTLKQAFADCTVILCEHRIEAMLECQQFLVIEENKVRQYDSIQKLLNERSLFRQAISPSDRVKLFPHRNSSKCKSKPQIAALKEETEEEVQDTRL
Reported values of Emax for individual entries
Quick note: give the figure in ms-1, leave out the unit.

Example entries begin here.
• COC(=O)C1=C(C)NC(C)=C(C(=O)OC)C1c1ccccc1[N+](=O)[O-] = 58
• COC(=O)C1=C(C)NC(C)=C(C(=O)OC)C1c1c(-c2ccc(C(F)(F)F)cc2)nc2sccn12 = 64
• COC(=O)C1=C(C)NC(C)=C(C(=O)OC)C1c1c(-c2ccc(OC(F)(F)F)cc2)nc2sccn12 = 64
• C=CCOC(=O)C1=C(C)NC(C)=C(C(=O)OCC=C)C1c1c(-c2ccc(OC(F)(F)F)cc2)nc2sccn12 = 60
• C=CCOC(=O)C1=C(C)NC(C)=C(C(=O)OCC=C)C1c1c(-c2ccc(C(F)(F)F)cc2)nc2sc(C)c(C)n12 = 42

Please indicate Emax recorded for CCOC(=O)C1=C(C)NC(C)=C(C(=O)OCC)C1c1c(-c2ccc(C(F)(F)F)cc2)nc2sccn12
42

Consider the compound CCOC(=O)C1=C(C)NC(C)=C(C(=O)OCC)C1c1c(C(F)(F)F)nc2sccn12 . State its measured Emax.
60

Answer with the recorded Emax for the compound listed here: COC(=O)C1=C(C)NC(C)=C(C(=O)OC)C1c1c(-c2cccc(C(F)(F)F)c2)nc2sccn12
65

Provide Emax value for the following compound: CCOC(=O)C1=C(C)NC(C)=C(C(=O)OCC)C1c1c(-c2ccc(Cl)c(Cl)c2Cl)nc2sccn12
46

Quote Emax reported for COC(=O)C1=C(C)NC(C)=C(C(=O)OC)C1c1c(-c2cccc(OC)c2)nc2sccn12 please.
60

For the compound COC(=O)C1=C(C)NC(C)=C(C(=O)OC)C1c1c(Cl)nc2sc(Cl)cn12 , report Emax.
60

Identify measured Emax corresponding to CCOC(=O)C1=C(C)NC(C)=C(C(=O)OCC)C1c1c(-c2ccccc2)nc2sc(C)cn12
60

Quote Emax reported for O=c1c(-c2ccc(O)cc2)coc2cc(O)cc(O)c12 please.
61

Answer with the recorded Emax for the compound listed here: CCOC(=O)C1=C(C)NC(C)=C(C(=O)OCC)C1c1c(Cl)nc2sc(C)cn12
60

Kindly indicate its recorded Emax. Item: COC(=O)C1=C(C)NC(C)=C(C(=O)OC)C1c1c(C(F)(F)F)nc2sccn12
60

Check the records and state Emax for COC(=O)C1=C(C)NC(C)=C(C(=O)OC)C1c1c(C(F)(F)F)nc2sc(C)cn12
60

Give the reported Emax for this compound. C=CCOC(=O)C1=C(C)NC(C)=C(C(=O)OCC=C)C1c1ccc(C(C)(C)C)cc1
56

Note down Emax recorded for CCOC(=O)C1=C(C)NC(C)=C(C(=O)OCC)C1c1cccc(Oc2ccccc2)c1
62
